// reported koff per item
Molecular target: T1, biotinylated recombinant human IL-12Rβ2 (human, UniProt Q99665 24-622, random biotinylated)
T1 construct: Recombinant protein produced in-house; also called hIL-12RB2; human IL-12RB2
T1 sequence: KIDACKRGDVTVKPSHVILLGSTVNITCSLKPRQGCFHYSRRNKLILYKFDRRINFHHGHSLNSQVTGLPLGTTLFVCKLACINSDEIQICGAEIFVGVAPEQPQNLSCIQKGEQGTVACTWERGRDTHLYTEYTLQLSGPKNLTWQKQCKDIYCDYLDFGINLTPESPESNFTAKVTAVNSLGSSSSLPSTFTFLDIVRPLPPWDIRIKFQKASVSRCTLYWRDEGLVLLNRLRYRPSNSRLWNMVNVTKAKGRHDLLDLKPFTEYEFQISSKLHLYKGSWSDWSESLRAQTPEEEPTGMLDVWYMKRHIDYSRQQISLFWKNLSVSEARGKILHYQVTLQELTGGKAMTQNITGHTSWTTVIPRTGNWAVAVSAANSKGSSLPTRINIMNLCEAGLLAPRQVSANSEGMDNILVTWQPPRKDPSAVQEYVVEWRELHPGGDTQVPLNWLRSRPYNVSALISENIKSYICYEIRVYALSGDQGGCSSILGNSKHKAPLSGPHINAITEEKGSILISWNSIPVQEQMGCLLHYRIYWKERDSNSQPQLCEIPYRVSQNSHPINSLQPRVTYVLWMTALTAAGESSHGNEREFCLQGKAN
Assay: BLI, P.E., off-rate ranking
Express the result in s⁻¹ but write the number alone.

Enquiry: Requested field: koff. Item: anti-IL-12Rβ2 VHH clone 3CRH83 (clone ID 20390) (VHH, not shown: small tags and cut ends, periplasmic extract) VHH: QVQLQESGGGLVQAGGSLKLSCAASGNTFSINAMAWYRQAPGQELELVAAISDVGNTIYADSMKGRFTISRGNADNTVYLQMNSLKPEDTATYYCNAGTFYTSPGDSYYRGYDFWGQGTQVTVSS
Return: 0.00528

Enquiry: What do you get for anti-IL-12Rβ2 VHH clone 3CRHS128 (clone ID 20432) (VHH, not shown: small tags and cut ends, periplasmic extract) VHH: QVQLQESGGGLVQPGGSLRLSCAASGFTFSTSGMHWFRQAPGKGLEWVSSIGATVDNSYYASSVKGRFTISRDNAKNTLYLLMNSLKSEDTAVYYCSKDPTGSSRGQGTQVTVSS ?
Return: 0.00274

Enquiry: Would you kindly repeat that for anti-IL-12Rβ2 VHH clone 3CRH28 (clone ID 20380) (VHH, not shown: small tags and cut ends, periplasmic extract) VHH: QVQLQESGGGLVQPGGSLTLSCAASGFTFSSNAMSWVRQAPGKGLEWVSSISSGGGTTYYTDSVKGRFTTARDNAKNTLYLRMNSLKPEDTAVYYCSKSSTGSGSRGQGTQVTVSS ?
Return: 0.00428

Enquiry: Another binder to look at: anti-IL-12Rβ2 VHH clone 3CRHS184 (clone ID 20441) (VHH, not shown: small tags and cut ends, periplasmic extract) VHH: QVQLQESGGGLVQAGGSLVLSCAASGSAALIFLMSWYRQAPGKQRELVAEVSRYGSTTYADSVEGRFTISRDNAKNIVDLQMNSLKPEDTAVYYCKADQYYGDSLRSSWGRGTQLTVSS
Return: 0.00385

Enquiry: Next binder up: anti-IL-12Rβ2 VHH clone 3CAHS79 (clone ID 20398) (VHH, not shown: small tags and cut ends, periplasmic extract) VHH: QVQLQESGGGLVQPGGSLRLTCVASGFPFSTHAMSWVRQPPGKGREWISAINSGGDSTDYADSVMGRFTISRDNAKNTVYLQMNSLKSEDTAVYYCAKYEDCSDYDCSSRASWGQGTQVTVSS
Return: 0.00434

Enquiry: Same for anti-IL-12Rβ2 VHH clone 3CRHS109 (clone ID 20430) (VHH, not shown: small tags and cut ends, periplasmic extract) VHH: QVQLQESGGGLVQPGGSLRLSCAASGFTFSTSGMHWFRQAPGKGLEWVSSIGIIVDSSYYASSVKGRFTISRDNAKNTLYLHMNSLKSEDTAVYYCSKDVTGSSRGQGTQVTVSS
Return: 0.0374

Enquiry: Entry to check: anti-IL-12Rβ2 VHH clone 3CRHS55 (clone ID 20423) (VHH, not shown: small tags and cut ends, periplasmic extract) VHH: QVQLQESGGGLVQAGGSLNLSCTASGSIISIYNMDWYRQAPGNQREWVASITSNGDSYYDGSAKGRFTISRDNAKMTVYLQMNSLKPEDTAVYYCKVPTENGNYWGQGTQVTVSS
Return: 0.00296

Enquiry: Consider next the binder anti-IL-12Rβ2 VHH clone 3CRHS166 (clone ID 20439) (VHH, not shown: small tags and cut ends, periplasmic extract) VHH: QVQLQESGGGLVQSGGSLRLSCVSSQTLVGIEAMGWYRQAPGKQRELVALITLNGGTFYADSVKGRFTISRDVAEHMLYLEMNSLNPEDTAVYFCVAGVESDNEEPTYWGQGTQVTVSS in the same way.
Return: 0.00247

Enquiry: Now try anti-IL-12Rβ2 VHH clone 3CAHS41 (clone ID 20394) (VHH, not shown: small tags and cut ends, periplasmic extract) VHH: QVQLQESGGGLVQAGDSLRLSCAASGRTFDTYIVGWFRQAPGKEREFVSALSWSDDTTIRDDSLRGRFTISRDNAKNTVYLLMNSLKPEDTAVYYCAAKAKPPAATWSSYRNREWYDYWGQGTQVTVSS .
Return: 0.00441

Enquiry: Next binder: anti-IL-12Rβ2 VHH clone 3CRHS163 (clone ID 20438) (VHH, not shown: small tags and cut ends, periplasmic extract) VHH: QVQLQESGGGLVQPGGSLRLSCTASGFAFSTYWMYWIRQSPEKGFEWVSVVNTGGDITYYADSVKGRFTISRDNAKNTLYLQMNSLKPEDTALYYCARDRTTMSYTRTYYRGGQGTQVTVSS
Return: 0.00302

Enquiry: Try anti-IL-12Rβ2 VHH clone 3CAHS171 (clone ID 20407) (VHH, not shown: small tags and cut ends, periplasmic extract) VHH: QVQLQESGGGLVQPGGSLRLTCVASGFPFSTHAMSWVRQPPGKGREWISAINSGGDSTDYADSVMGRFTISRDNAKNTVYLQMNSLKSEDTAAYYCAKYEDCSDYDCSSRASWGQGTQVTVSS next.
Return: 0.00431

Data provenance is patent US20260209362A1.
